Origin of values: patent US11173151B2

Quick list: ratio IC50 hV2/hV1a per entry.
# target desc: human V1a receptor (Homo sapiens)
# Construct: expressed in transfected cells; host or cells: CHO K1 (ATCC), also stably transfected with a modified aequorin
# Sequence (P37288 whole entry): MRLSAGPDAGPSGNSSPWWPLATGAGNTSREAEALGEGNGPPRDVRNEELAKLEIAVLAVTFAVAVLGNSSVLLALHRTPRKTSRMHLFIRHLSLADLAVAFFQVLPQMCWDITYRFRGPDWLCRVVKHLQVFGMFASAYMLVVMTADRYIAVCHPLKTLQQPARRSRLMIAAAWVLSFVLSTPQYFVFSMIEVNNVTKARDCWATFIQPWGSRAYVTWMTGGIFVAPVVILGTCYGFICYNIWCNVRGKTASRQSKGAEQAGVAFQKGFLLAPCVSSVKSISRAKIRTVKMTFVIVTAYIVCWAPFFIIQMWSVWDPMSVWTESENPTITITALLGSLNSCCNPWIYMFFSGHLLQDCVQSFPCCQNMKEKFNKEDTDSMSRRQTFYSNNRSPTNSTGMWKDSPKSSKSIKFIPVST
# experimental details: Cellular in vitro assay for determining vasopressin receptor activity, V1a receptor cell line (CHO, aequorin luminescence)
# Type: cell-based
# condition details: selectivity ratio IC50 hV2 / IC50 hV1a
Could you keep your reply to the number by itself?

CN1CCC(N(C)C(=O)c2ccccc2-n2cnc(Cn3nc(-c4ccc(Cl)cc4)n(C[C@H](O)C(F)(F)F)c3=O)n2)C1 (mixture of isomers)
438.6

Task item: // returns reported ratio IC50 hV2/hV1a for input O=c1n(Cc2ncn(-c3cnccc3NCC3CS(=O)(=O)C3)n2)nc(-c2ccc(Cl)cc2)n1C[C@H](O)C(F)(F)F
Reply: 82.3

Task item: // returns reported ratio IC50 hV2/hV1a for input O=C(NCCC(F)(F)F)c1cccc(Cl)c1-n1cnc(Cn2nc(-c3ccc(Cl)cc3)n(C[C@@H](O)C(F)(F)F)c2=O)n1
Reply: 10.2

----------
Quick list: IC50 per entry.
# target desc: human V2 receptor (Homo sapiens, UniProt P30518)
# Construct: expressed in transfected cells; host or cells: CHO K1 (ATCC) expressing firefly luciferase under a CRE-responsive promoter
# Sequence (P30518 whole entry): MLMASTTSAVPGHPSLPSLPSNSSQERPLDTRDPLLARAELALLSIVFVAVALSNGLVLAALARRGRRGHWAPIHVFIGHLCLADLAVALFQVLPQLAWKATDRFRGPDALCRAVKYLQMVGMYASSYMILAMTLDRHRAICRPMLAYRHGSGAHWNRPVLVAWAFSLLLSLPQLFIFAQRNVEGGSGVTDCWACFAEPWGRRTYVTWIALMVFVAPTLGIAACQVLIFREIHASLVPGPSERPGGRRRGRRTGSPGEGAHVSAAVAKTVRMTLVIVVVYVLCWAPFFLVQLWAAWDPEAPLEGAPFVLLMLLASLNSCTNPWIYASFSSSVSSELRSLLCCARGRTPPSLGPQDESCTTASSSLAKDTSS
# experimental details: Cellular in vitro assay for determining vasopressin receptor activity, V2 receptor cell line (CHO, CRE-luciferase)
# Type: cell-based
# condition details: CHO cell line transfected with human V2 receptor; [Arg8]-vasopressin at EC50 concentration; read-out: IC50 hV2
Express the result in µM but write the number alone.

O=C(NC1CC(F)(F)C1)c1ncccc1-n1cnc(Cn2nc(-c3ccc(Cl)cc3)n(C[C@H](O)C(F)(F)F)c2=O)n1 [Example 439]
1.28
O=C(NCC(F)(F)F)c1cccc(C(F)(F)F)c1-n1cnc(Cn2nc(-c3ccc(Cl)cc3)n(C[C@H](O)C(F)(F)F)c2=O)n1 [Example 412]
2
O=C(NCC1CC1)c1ncccc1-n1cnc(Cn2nc(-c3ccc(Cl)cc3)n(C[C@@H](O)C(F)(F)F)c2=O)n1 [Example 459]
4.4
O=C(NCC1CC1)c1cccc(C(F)(F)F)c1-n1cnc(Cn2nc(-c3ccc(Cl)cc3)n(C[C@H](O)C(F)(F)F)c2=O)n1 [Example 419]
1.02
O=C1CN(C(=O)c2nc(Cn3nc(-c4ccc(Cl)cc4)n(C[C@H](O)C(F)(F)F)c3=O)nn2-c2cnccc2C(=O)NCC(F)(F)F)CCN1 [Example 510]
8.9
COCC1CCCN1C(=O)c1ccncc1-n1nc(Cn2nc(-c3ccc(Cl)cc3)n(C[C@H](O)C(F)(F)F)c2=O)nc1C(=O)NCC(C)(C)N (mixture of isomers) [Example 536]
83.3

Task item: // returns reported IC50 for input NC(=O)[C@H]1CC(F)(F)CN1C(=O)c1ncccc1-n1cnc(Cn2nc(-c3ccc(Cl)cc3)n(C[C@@H](O)C(F)(F)F)c2=O)n1 [Example 486]
Reply: 32

Task item: // returns reported IC50 for input CC1(NC(=O)c2ncccc2-n2cnc(Cn3nc(-c4ccc(Cl)cc4)n(C[C@H](O)C(F)(F)F)c3=O)n2)CC1 [Example 455]
Reply: 1.2

Task item: // returns reported IC50 for input O=C(NC1CC1(F)F)c1cccnc1-n1cnc(Cn2nc(-c3ccc(Cl)cc3)n(C[C@H](O)C(F)(F)F)c2=O)n1 (stereo partly drawn) [Example 500]
Reply: 0.305

Task item: // returns reported IC50 for input O=C1CN(c2nc(Cn3nc(-c4ccc(Cl)cc4)n(C[C@H](O)C(F)(F)F)c3=O)nn2-c2cccnc2C(=O)N[C@@H]2C[C@@H]2F)CCN1 (racemic) [Example 508]
Reply: 23.5

Task item: // returns reported IC50 for input O=C(NCC(O)C(F)(F)F)c1ncccc1-n1cnc(Cn2nc(-c3ccc(Cl)cc3)n(C[C@@H](O)C(F)(F)F)c2=O)n1 (mixture of isomers) [Example 485]
Reply: 5

Task item: // returns reported IC50 for input O=C(NCCC(F)(F)F)c1cccnc1-n1nc(Cn2nc(-c3ccc(Cl)cc3)n(C[C@H](O)C(F)(F)F)c2=O)nc1C(=O)N1CCS(=O)(=O)CC1 [Example 529]
Reply: 2.9
